# Tested System: MLK3 (Homo sapiens, UniProt Q16584)
# Construct: purchased Dundee DU8313
# Sequence (Q16584 whole entry): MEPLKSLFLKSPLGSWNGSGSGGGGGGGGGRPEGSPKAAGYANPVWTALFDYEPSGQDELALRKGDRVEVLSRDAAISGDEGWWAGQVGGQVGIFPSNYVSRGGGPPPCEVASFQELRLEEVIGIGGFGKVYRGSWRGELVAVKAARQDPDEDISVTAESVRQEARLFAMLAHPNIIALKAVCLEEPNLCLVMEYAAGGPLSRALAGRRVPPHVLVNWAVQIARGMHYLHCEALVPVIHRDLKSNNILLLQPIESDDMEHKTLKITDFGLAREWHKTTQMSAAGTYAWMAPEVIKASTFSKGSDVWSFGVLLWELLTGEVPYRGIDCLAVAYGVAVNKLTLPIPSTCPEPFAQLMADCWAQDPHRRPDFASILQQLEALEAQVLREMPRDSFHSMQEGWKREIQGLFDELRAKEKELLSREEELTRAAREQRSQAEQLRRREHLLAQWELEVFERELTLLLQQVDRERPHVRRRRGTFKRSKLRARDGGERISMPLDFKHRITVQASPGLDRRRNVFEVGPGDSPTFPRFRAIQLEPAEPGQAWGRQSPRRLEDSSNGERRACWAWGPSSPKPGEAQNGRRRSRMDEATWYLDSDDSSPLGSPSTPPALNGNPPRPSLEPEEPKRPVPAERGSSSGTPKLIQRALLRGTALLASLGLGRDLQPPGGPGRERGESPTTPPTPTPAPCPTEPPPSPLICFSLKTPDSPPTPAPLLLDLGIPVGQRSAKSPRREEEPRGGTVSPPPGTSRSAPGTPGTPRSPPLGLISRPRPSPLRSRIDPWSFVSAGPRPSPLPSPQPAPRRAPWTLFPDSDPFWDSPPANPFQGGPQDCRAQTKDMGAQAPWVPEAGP
# Experimental Details: Radiometric filter plate MLK3 assay
# Type: biochemical
pIC50: −log10 of the molar value.
Readout: pIC50

stdin: What measured pIC50 is associated with CC(C)OC(=O)N1CCN(Cc2ccc(-c3cnc4[nH]cc(-c5ccc6[nH]ccc6c5)c4c3)cc2)CC1 [Example 185] on MLK3 (Homo sapiens, UniProt Q16584)?
stdout: 6.00 to 7.00

----------
# pIC50 per entry
# Tested System: MLK3 (Homo sapiens)
# Construct: purchased Dundee DU8313
# Experimental Details: Radiometric filter plate MLK3 assay; as to MK3 IC50: 2 µM cold ATP (Km)
# Type: biochemical
# Run Conditions: read-out: MK3 IC50
pIC50: −log10 of the molar value.

stdin: Requested read-out: pIC50. Entry: `COc1cc(-c2cnc3[nH]c(=S)n(CC4CC4)c3n2)cc(OC)c1OC`
stdout: < 6.00

stdin: Requested read-out: pIC50. Entry: `COc1cc(-c2cnc3[nH]cc(-c4ccc5[nH]ccc5c4)c3c2)ccc1OCCN(C)C`
stdout: < 6.00

stdin: Requested read-out: pIC50. Entry: COc1cc(-c2cnc3c(c2)C(Cc2ccccc2)C(=O)N3)cc(OC)c1OC (centres unmarked)
stdout: < 6.00
